assay: NCI Yeast Anticancer Drug Screen. Data for the sgs1 mgt1 strain (AID 161)
particulars: S. cerevisiae sgs1 mgt1 strain, at 50.0 µM
This is part of a sample that, as a whole, favours compounds with a hit. Of some 79,000 tested, about 15% had one in any assay. The source made the active and inactive calls. No stated cut-off is given here; in the data, active means growth inhibition above about 70%; inactive means the rest.
Outcome (select one): y = active, n = inactive

Below are worked cases with known answers.
CCC(c1ccc(O)cc1)c1cc2c(cc1OCC(=O)OC)OCO2 (configuration not stated); n
NC(=O)c1nnn2c1nc(N)c1cc(Cl)ccc12; n
C[n+]1cccc(/C=C/c2ccc3cccc(O)c3n2)c1; n
CCc1nnc(CC)n1NCCCC(=O)O; n
Nn1c(=O)[nH]c2ncn(Cc3ccccc3)c2c1=O; n

Query: Record lookup: outcome of this test for COc1cc(/C=C/c2ccc([N+](=O)[O-])cc2[N+](=O)[O-])ccc1O ?
Result: n

Query: And then C/C(=C/c1ccccc1)OC(=O)c1ccccc1 , what is it?
Result: n
